target: human H1 receptor (Homo sapiens, UniProt P35367); construct: purchased Euroscreen SA, Brussels, Belgium ES-390-M; host or cells: recombinant CHO-K1 cells (membranes); assay: Histamine H1 receptor binding, competition displacement of [3H]-pyrilamine; conditions: 1 nM [3H]-pyrilamine, membranes from recombinant CHO-K1 cells expressing the human H1 receptor, 1 hour at room temperature; read-out: H1 pKi (converted)
Sequence (P35367 whole entry): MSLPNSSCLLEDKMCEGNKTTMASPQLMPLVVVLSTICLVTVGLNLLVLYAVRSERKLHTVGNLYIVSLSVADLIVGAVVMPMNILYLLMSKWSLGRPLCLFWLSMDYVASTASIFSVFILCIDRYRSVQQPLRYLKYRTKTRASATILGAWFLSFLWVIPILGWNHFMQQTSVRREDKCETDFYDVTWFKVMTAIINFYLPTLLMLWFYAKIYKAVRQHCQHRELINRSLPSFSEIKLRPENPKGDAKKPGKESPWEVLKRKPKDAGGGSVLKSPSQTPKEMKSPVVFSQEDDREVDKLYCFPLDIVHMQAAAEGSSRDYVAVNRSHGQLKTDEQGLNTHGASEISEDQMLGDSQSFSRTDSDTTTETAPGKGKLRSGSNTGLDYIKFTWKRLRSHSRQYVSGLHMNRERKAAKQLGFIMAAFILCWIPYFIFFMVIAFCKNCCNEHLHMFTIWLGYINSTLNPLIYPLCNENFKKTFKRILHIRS
endpoint: Ki (nM)
One number for each entry, in nM.

Below are worked cases with known answers.
# compound, targetEntity, endpoint, unitsOfMeasure, measuredNumber
records = [
    ("CN(c1[nH]nnc1C(=O)NC[C@@H](O)CN1CCC(Oc2ccc(Cl)c(Cl)c2)CC1)S(C)(=O)=O [Example 39]", "human H1 receptor (Homo sapiens, UniProt P35367)", "Ki", "nM", 126),
    ("O=C(NC[C@@H](O)CN1CCC(Oc2ccc(Cl)c(Cl)c2)CC1)c1sc(=O)[nH]c1-c1ccc(F)cc1 [Example 25]", "human H1 receptor (Homo sapiens, UniProt P35367)", "Ki", "nM", 15.8),
    ("Cn1c(C(=O)NC[C@@H](O)CN2CCC(Oc3ccc(Cl)c(Cl)c3)CC2)cc(=O)[nH]c1=O [Example 14]", "human H1 receptor (Homo sapiens, UniProt P35367)", "Ki", "nM", 126),
    ("Cc1c(OC2CCN(C[C@H](O)CNC(=O)c3sc(=O)[nH]c3C(F)(F)F)CC2)ccc(Cl)c1Cl [Example 24]", "human H1 receptor (Homo sapiens, UniProt P35367)", "Ki", "nM", 20),
]

I need Ki for every entry listed below, if you could help.
1. O=C(O)c1ccc(C(=O)NC[C@@H](O)CN2CCC(Oc3ccc(Cl)c(Cl)c3)CC2)c2ccccc12 [Example 20]
2. N#Cc1ccc(OC2CCN(C[C@H](O)CNC(=O)c3sc(=O)[nH]c3C(F)(F)F)CC2)cc1Cl [Example 27]
3. CS(=O)(=O)Nc1cc(C(F)(F)F)c(C(=O)NC[C@@H](O)CN2CCC(Oc3ccc(Cl)c(Cl)c3)CC2)cn1 [Example 18]

1: 200; 2: 251; 3: 316
